Assay name: In vivo body distribution and pharmacokinetics after oral administration
Set-up: species or system Kunming mice
Condition details: male, Kunming, mouse, plasma, po, 30 mg/kg; mice, oral 30 mg/kg calculated as CPT
Attribute measured: Cmax
I'd appreciate it if you included the unit after the number.

// recorded Cmax for `CC[C@@]1(O)C(=O)OCc2c1cc1n(c2=O)Cc2cc3ccccc3nc2-1` : 465 nM

* * *

Assay name: In vivo body distribution and pharmacokinetics after oral administration
Parameters: species or system Kunming mice
Condition details: male, Kunming, mouse, liver, po, 30 mg/kg; mice, oral 30 mg/kg calculated as CPT
Attribute measured: AUC(0-inf) (µM·h)
Report the figure in µM·h without appending any unit label.

// recorded AUC(0-inf) for `CC[C@@]1(O)C(=O)OCc2c1cc1n(c2=O)Cc2cc3ccccc3nc2-1` : 7.46

* * *

Assay name: In vivo body distribution and pharmacokinetics after oral administration
Set-up: species or system Kunming mice
Condition details: male, Kunming, mouse, spleen, po, 30 mg/kg, spleen; mice, oral 30 mg/kg calculated as CPT; read-out: MRT0–∞
Attribute measured: MRT inf (h)
Report the figure in h without appending any unit label.

// recorded MRT inf for `CC[C@@]1(O)C(=O)OCc2c1cc1n(c2=O)Cc2cc3ccccc3nc2-1` : 6.96

* * *

Assay name: In vivo body distribution and pharmacokinetics after oral administration
Set-up: species or system Kunming mice
Condition details: male, Kunming, mouse, plasma, po, 30 mg/kg, plasma; mice, oral 30 mg/kg calculated as CPT; read-out: MRT0–∞
Attribute measured: MRT inf (h)
Report the figure in h without appending any unit label.

// recorded MRT inf for `CC[C@@]1(O)C(=O)OCc2c1cc1n(c2=O)Cc2cc3ccccc3nc2-1` : 3.22

* * *

Assay name: In vivo body distribution and pharmacokinetics after oral administration
Design: species or system Kunming mice
Condition details: male, Kunming, mouse, kidney, po, 30 mg/kg, kidney; mice, oral 30 mg/kg calculated as CPT; read-out: MRT0–∞
Attribute measured: MRT inf (h)
Report the figure in h without appending any unit label.

// recorded MRT inf for CC[C@@]1(O)C(=O)OCc2c1cc1n(c2=O)Cc2cc3ccccc3nc2-1 [CPT, Camptothecin] : 5.32

* * *

Assay name: In vivo body distribution and pharmacokinetics after oral administration
Parameters: species or system Kunming mice
Condition details: male, Kunming, mouse, spleen, po, 30 mg/kg; mice, oral 30 mg/kg calculated as CPT
Attribute measured: AUC(0-inf)
I'd appreciate it if you included the unit after the number.

// recorded AUC(0-inf) for `CC[C@@]1(O)C(=O)OCc2c1cc1n(c2=O)Cc2cc3ccccc3nc2-1` : 9.29 µM·h

* * *

Assay name: In vivo body distribution and pharmacokinetics after oral administration
Design: species or system Kunming mice
Condition details: male, Kunming, mouse, spleen, po, 30 mg/kg; mice, oral 30 mg/kg calculated as CPT
Attribute measured: AUC(0-t) (µM·h)
Report the figure in µM·h without appending any unit label.

// recorded AUC(0-t) for `CC[C@@]1(O)C(=O)OCc2c1cc1n(c2=O)Cc2cc3ccccc3nc2-1` : 7.56

* * *

Assay name: In vivo body distribution and pharmacokinetics after oral administration
Design: species or system Kunming mice
Condition details: male, Kunming, mouse, lung, po, 30 mg/kg, lung; mice, oral 30 mg/kg calculated as CPT; read-out: MRT0–∞
Attribute measured: MRT inf (h)
Report the figure in h without appending any unit label.

// recorded MRT inf for CC[C@@]1(O)C(=O)OCc2c1cc1n(c2=O)Cc2cc3ccccc3nc2-1 [CPT, Camptothecin] : 7.25

* * *

Assay name: In vivo body distribution and pharmacokinetics after oral administration
Set-up: species or system Kunming mice
Condition details: male, Kunming, mouse, liver, po, 30 mg/kg; mice, oral 30 mg/kg calculated as CPT
Attribute measured: AUC(0-t) (µM·h)
Report the figure in µM·h without appending any unit label.

// recorded AUC(0-t) for CC[C@@]1(O)C(=O)OCc2c1cc1n(c2=O)Cc2cc3ccccc3nc2-1 [CPT, Camptothecin] : 6.95

* * *

Assay name: In vivo body distribution and pharmacokinetics after oral administration
Parameters: species or system Kunming mice
Condition details: male, Kunming, mouse, lung, po, 30 mg/kg; mice, oral 30 mg/kg calculated as CPT
Attribute measured: Tmax (h)
Report the figure in h without appending any unit label.

// recorded Tmax for `CC[C@@]1(O)C(=O)OCc2c1cc1n(c2=O)Cc2cc3ccccc3nc2-1` : 1.2

* * *

Assay name: In vivo body distribution and pharmacokinetics after oral administration
Set-up: species or system Kunming mice
Condition details: male, Kunming, mouse, kidney, po, 30 mg/kg; mice, oral 30 mg/kg calculated as CPT
Attribute measured: AUC(0-t) (µM·h)
Report the figure in µM·h without appending any unit label.

// recorded AUC(0-t) for `CC[C@@]1(O)C(=O)OCc2c1cc1n(c2=O)Cc2cc3ccccc3nc2-1` : 4.83

* * *

Assay name: In vivo body distribution and pharmacokinetics after oral administration
Parameters: species or system Kunming mice
Condition details: male, Kunming, mouse, kidney, po, 30 mg/kg; mice, oral 30 mg/kg calculated as CPT
Attribute measured: Cmax (nM)
Report the figure in nM without appending any unit label.

// recorded Cmax for CC[C@@]1(O)C(=O)OCc2c1cc1n(c2=O)Cc2cc3ccccc3nc2-1 [CPT, Camptothecin] : 1330

* * *

Assay name: In vivo body distribution and pharmacokinetics after oral administration
Parameters: species or system Kunming mice
Condition details: male, Kunming, mouse, liver, po, 30 mg/kg; mice, oral 30 mg/kg calculated as CPT
Attribute measured: Cmax (nM)
Report the figure in nM without appending any unit label.

// recorded Cmax for CC[C@@]1(O)C(=O)OCc2c1cc1n(c2=O)Cc2cc3ccccc3nc2-1 [CPT, Camptothecin] : 2080

* * *

Assay name: In vivo body distribution and pharmacokinetics after oral administration
Design: species or system Kunming mice
Condition details: male, Kunming, mouse, heart, po, 30 mg/kg; mice, oral 30 mg/kg calculated as CPT
Attribute measured: Tmax
I'd appreciate it if you included the unit after the number.

// recorded Tmax for `CC[C@@]1(O)C(=O)OCc2c1cc1n(c2=O)Cc2cc3ccccc3nc2-1` : 36 min

* * *

Assay name: In vivo body distribution and pharmacokinetics after oral administration
Set-up: species or system Kunming mice
Condition details: male, Kunming, mouse, lung, po, 30 mg/kg; mice, oral 30 mg/kg calculated as CPT
Attribute measured: AUC(0-t) (µM·h)
Report the figure in µM·h without appending any unit label.

// recorded AUC(0-t) for `CC[C@@]1(O)C(=O)OCc2c1cc1n(c2=O)Cc2cc3ccccc3nc2-1` : 9.8

* * *

Assay name: In vivo body distribution and pharmacokinetics after oral administration
Parameters: species or system Kunming mice
Condition details: male, Kunming, mouse, liver, po, 30 mg/kg; mice, oral 30 mg/kg calculated as CPT
Attribute measured: Tmax (h)
Report the figure in h without appending any unit label.

// recorded Tmax for `CC[C@@]1(O)C(=O)OCc2c1cc1n(c2=O)Cc2cc3ccccc3nc2-1` : 1

* * *

Assay name: In vivo body distribution and pharmacokinetics after oral administration
Parameters: species or system Kunming mice
Condition details: male, Kunming, mouse, liver and plasma; mice, oral 30 mg/kg calculated as CPT; read-out: liver targeting index (LTI) = AUC0–t in liver/AUC0–t in plasma
Attribute measured: Kp
Lab note: jot the number down without any unit.

// recorded Kp for CC[C@@]1(O)C(=O)OCc2c1cc1n(c2=O)Cc2cc3ccccc3nc2-1 [CPT, Camptothecin] : 4.84

* * *

Assay name: In vivo body distribution and pharmacokinetics after oral administration
Parameters: species or system Kunming mice
Condition details: male, Kunming, mouse, spleen, po, 30 mg/kg; mice, oral 30 mg/kg calculated as CPT
Attribute measured: Tmax (min)
Report the figure in min without appending any unit label.

// recorded Tmax for `CC[C@@]1(O)C(=O)OCc2c1cc1n(c2=O)Cc2cc3ccccc3nc2-1` : 54

* * *

Assay name: In vivo body distribution and pharmacokinetics after oral administration
Set-up: species or system Kunming mice
Condition details: male, Kunming, mouse, plasma, po, 30 mg/kg; mice, oral 30 mg/kg calculated as CPT
Procedure: For body distribution investigations, 80 male Kunming mice (weight, 18–22 g; age, 6–8 weeks) were used. […] After fasting overnight, mice were received a single dose of G2 or CPT (30 mg/kg, calculated as CPT) suspension by gavage. […]
Attribute measured: Tmax (min)
Report the figure in min without appending any unit label.

// recorded Tmax for `CC[C@@]1(O)C(=O)OCc2c1cc1n(c2=O)Cc2cc3ccccc3nc2-1` : 30

* * *

Assay name: In vivo body distribution and pharmacokinetics after oral administration
Parameters: species or system Kunming mice
Condition details: male, Kunming, mouse, heart, po, 30 mg/kg; mice, oral 30 mg/kg calculated as CPT
Attribute measured: AUC(0-t) (µM·h)
Report the figure in µM·h without appending any unit label.

// recorded AUC(0-t) for `CC[C@@]1(O)C(=O)OCc2c1cc1n(c2=O)Cc2cc3ccccc3nc2-1` : 2.86
